B1: Osa-1-4 twister ribozyme (parent)
chain: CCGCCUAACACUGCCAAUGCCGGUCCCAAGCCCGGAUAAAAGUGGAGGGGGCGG

Variants of: B1
Test: self-cleavage, relative activity (ratio to wild type); higher = more cleavage; co-transcriptional
recorded_endpoint: self-cleavage
Reply with the value as a number alone.

A40U G50C ... 0.18

// next item, self-cleavage requested
*Q* Please look up its self-cleavage: A7G C14G
*A* 0.32
